// provenance: patent US20210380703A1

Biological target: T1, mouse ACVR2A (mouse, UniProt P27038 20-135, limits assumed); further: test concentration or dose not given here
T1 construct: coated antigen of the initial ELISA
T1 sequence (P27038 20-135 limits assumed): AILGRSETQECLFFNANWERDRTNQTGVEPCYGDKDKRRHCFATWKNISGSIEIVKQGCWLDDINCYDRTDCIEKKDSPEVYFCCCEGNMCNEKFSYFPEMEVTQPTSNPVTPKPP
Experiment: ELISA
Experimental: The binding of ACVR2A-specific monoclonal antibodies to human ACVR2A, mouse ACVR2A, biotinylated goat anti-human kappa light chain (positive control) and human Fc (negative control) were determined by ELISA.
Readout Label: optical density (OD)
Answers are plain numbers, in OD.

// below: answered binders
{"Binder": "370_H02 (antibody, V domains shown, Group III) VH: EVQLLESGGGLVQPGGSLRLSCAASGFTFDSYSMNWVRQAPGKGLEWVSGINYNSGYTSYADSVKGRFTISRDNSKNTLYLQMNSLRAEDTAVYYCARGANWHDTHLDYWGQGTLVTVSS VL: DIQMTQSPSSLSASVGDRVTITCRASQSILTYLNWYQQKPGKAPKLLIYAATSRASGVPSRFSGSGSGTDFTLTISSLQPEDFATYYCQQSYESPLTFGGGTKVEIK", "Value Units": "OD", "optical density": 3.39}
{"Binder": "373_A12 (antibody, V domains shown, Group III) VH: EVQLLESGGGLVQPGGSLRLSCAASGFTFSSYSMNWVRQAPGKGLEWVSSINYNGGYTSYADSVKGRFTISRDNSKNTLYLQMNSLRAEDTAVYYCARGANWHDTALDYWGQGTLVTVSS VL: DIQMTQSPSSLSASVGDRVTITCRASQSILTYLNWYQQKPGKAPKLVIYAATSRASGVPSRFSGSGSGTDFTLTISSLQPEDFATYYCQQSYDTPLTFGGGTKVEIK", "Value Units": "OD", "optical density": 3.31}
{"Binder": "371_G02 (antibody, V domains shown, Group III) VH: EVQLLESGGGLVQPGGSLRLSCAASGFTFDSYGMNWVRQAPGKGLEWVASINYNGGYTSYADSVKGRFTISRDNSKNTLYLQMNSLRAEDTAVYYCARGANWHDTHLDYWGQGTLVTVSS VL: DIQMTQSPSSLSASVGDRVTITCRASQSILSYLNWYQQKPGKAPKLLIYAATSRASGVPSRFSGSGSGTDFTLTISSLQPEDFATYYCQQSYDLPLTFGGGTKVEIK", "Value Units": "OD", "optical density": 3.06}
{"Binder": "375_B12 (antibody, V domains shown, Group III) VH: EVQLLESGGGLVQPGGSLRLSCAASGFTFDSYSMNWVRQAPGKGLEWVAGINYNGGYKSYADSVKGRFTISRDNSKNTLYLQMNSLRAEDTAVYYCARGANWHDTALDYWGQGTLVTVSS VL: DIQMTQSPSSLSASVGDRVTITCRASQSIVTYLNWYQQKPGKAPKLLIYAATSRASGVPSRFSGSGSGTDFTLTISSLQPEDFATYYCQQSYDTPLTFGGGTKVEIK", "Value Units": "OD", "optical density": 3.34}
{"Binder": "371_H10 (antibody, V domains shown, Group III) VH: EVQLLESGGGLVQPGGSLRLSCAASGFTFSSYSMNWVRQAPGKGLEWVAGINYNSGYKSYADSVKGRFTISRDNSKNTLYLQMNSLRAEDTAVYYCARGANWHDTHLDYWGQGTLVTVSS VL: DIQMTQSPSSLSASVGDRVTITCRASQSISTYLNWYQQKPGKAPKLLIYAATSRHSGVPSRFSGSGSGTDFTLTISSLQPEDFATYYCQQSYENPLTFGGGTKVEIK", "Value Units": "OD", "optical density": 2.55}
{"Binder": "371_D04 (antibody, V domains shown, Group III) VH: EVQLLESGGGLVQPGGSLRLSCAASGFTFDDYSMNWVRQAPGKGLEWVAGINYNGGYTGYADSVKGRFTISRDNSKNTLYLQMNSLRAEDTAVYYCARGANWHDTHLDYWGQGTLVTVSS VL: DIQMTQSPSSLSASVGDRVTITCRASQSIVSYVNWYQQKPGKAPKLLIYAATSLASGVPSRFSGSGSGTDFTLTISSLQPEDFATYYCQQSYENPLTFGGGTKVEIK", "Value Units": "OD", "optical density": 1.29}
{"Binder": "373_G08 (antibody, V domains shown, Group III) VH: EVQLLESGGGLVQPGGSLRLSCAASGFTFDSYSMNWVRQAPGKGLEWVSNINYNGGYTSYADSVKGRFTISRDNSKNTLYLQMNSLRAEDTAVYYCARGANWHDTALDYWGQGTLVTVSS VL: DIQMTQSPSSLSASVGDRVTITCRASQSILTYLNWYQQKPGKAPKLLIYAATSLASGVPSRFSGSGSGTDFTLTISSLQPEDFATYYCQQSYDSPLTFGGGTKVEIK", "Value Units": "OD", "optical density": 3.67}
{"Binder": "367_D03 (antibody, V domains shown, Group III) VH: EVQLLESGGGLVQPGGSLRLSCAASGFTFDSYSMNWVRQAPGKGLEWVSSINYNGGYTGYADSVKGRFTISRDNSKNTLYLQMNSLRAEDTAVYYCARGANWHDTHLDYWGQGTLVTVSS VL: DIQMTQSPSSLSASVGDRVTITCRASQSIITYLNWYQQKPGKAPKLLIYAATSRASGVPSRFSGSGSGTDFTLTISSLQPEDFATYYCQQSYDTPLTFGGGTKVEIK", "Value Units": "OD", "optical density": 2.45}
{"Binder": "374_D10 (antibody, V domains shown, Group III) VH: EVQLLESGGGLVQPGGSLRLSCAASGFTFSSYGMHWVRQAPGKGLEWVASINYNGGYTSYADSVKGRFTISRDNSKNTLYLQMNSLRAEDTAVYYCARGANWHDTHLDYWGQGTLVTVSS VL: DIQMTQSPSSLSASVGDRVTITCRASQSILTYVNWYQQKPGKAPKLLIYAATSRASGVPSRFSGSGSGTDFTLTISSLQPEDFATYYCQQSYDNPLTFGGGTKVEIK", "Value Units": "OD", "optical density": 3.64}

// field: optical density; key: 370_F03 (antibody, V domains shown, Group III) VH: EVQLLESGGGLVQPGGSLRLSCAASGFTFSSYGMNWVRQAPGKGLEWVSSINYNSGYKSYADSVKGRFTISRDNSKNTLYLQMNSLRAEDTAVYYCARGANWHDTALDYWGQGTLVTVSS VL: DIQMTQSPSSLSASVGDRVTITCRASQSILSYVNWYQQKPGKAPKLLIYAATSRASGVPSRFSGSGSGTDFTLTISSLQPEDFATYYCQQSYENPLTFGGGTKVEIK ; value = 1.25
